# Test system: OVCAR-8 ovarian
# TEST: NCI tumour cell line growth inhibition, 384-well format; in the data active = GI50 below about 0.43 µM; inactive = the rest
Pick one and only one: true for active, false for inactive

Here are 3 compounds together with their reported answers.
1) Cc1ncc(CCCN(C)C)cc1Nc1ncc2c(n1)-c1ccc(C(F)(F)F)cc1NC(=S)C2 ... true
2) CN(C)C(=O)[C@H](O)[C@H](Cc1ccccc1)NC(=O)c1cc2cc(Cl)ccc2[nH]1 ... false
3) Nc1nc(F)nc2c1ncn2C1OC(CO)C(O)C1O (centres undefined) ... false

Next compound, please.
Query :: Lab log entry: CC(C)(C[C@H]1CN(S(=O)(=O)c2cccc(C(F)(F)F)c2)c2cc(-c3cc(F)cc(OC(F)F)c3)ccc2O1)C(=O)O — outcome as called in the assay?
Result :: false

====

# System: HOP-92 NSCLC
# TEST: NCI tumour cell line growth inhibition, 384-well format
Known GI50 of a selection of molecules

These recorded examples may help you get a feel for the data.
1. Cc1ncc(CCCN(C)C)cc1Nc1ncc2c(n1)-c1ccc(C(F)(F)F)cc1NC(=S)C2 ... < 10 nM
2. C[C@H](O)C(=O)N1CCC(CCn2c(Sc3cc4c(cc3Br)OCO4)nc3c(N)ncnc32)CC1 ... 624 nM
3. CCOc1cc(C(C)(C)C)ccc1C1=N[C@@](C)(c2ccc(Cl)cc2)[C@@](C)(c2ccc(Cl)cc2)N1C(=O)N1CCN(CCCS(C)(=O)=O)CC1 ... 2240 nM

# next molecule below
Query :: Respond only with GI50 recorded for Nc1nc(F)nc2c1ncn2C1OC(CO)C(O)C1O (centres undefined)
Result :: 7810 nM

====

# Test system: K-562 leukemia
# TEST: NCI tumour cell line growth inhibition, 384-well format; in the data active = GI50 below about 0.43 µM; inactive = the rest
Pick one and only one: 1 (yes) for active, 0 (no) for inactive

1. C[C@H](O)C(=O)N1CCC(CCn2c(Sc3cc4c(cc3Br)OCO4)nc3c(N)ncnc32)CC1 ... 1 (yes)

Query :: Lab log entry: CCc1nc(C(N)=O)c(Nc2ccc(N3CCC(N4CCN(C)CC4)CC3)c(OC)c2)nc1NC1CCOCC1 — outcome as called in the assay?
Result :: 0 (no)

Query :: Lab log entry: CC(C)(C[C@H]1CN(S(=O)(=O)c2cccc(C(F)(F)F)c2)c2cc(-c3cc(F)cc(OC(F)F)c3)ccc2O1)C(=O)O — outcome as called in the assay?
Result :: 0 (no)

Query :: Lab log entry: CN(C)C(=O)[C@H](O)[C@H](Cc1ccccc1)NC(=O)c1cc2cc(Cl)ccc2[nH]1 — outcome as called in the assay?
Result :: 0 (no)

====

# Tested on: A549 NSCLC
# TEST: NCI tumour cell line growth inhibition, 384-well format
Known TGI of a selection of molecules
Kindly provide the numeric value in nM only, without the unit symbol.

1. Cc1ncc(CCCN(C)C)cc1Nc1ncc2c(n1)-c1ccc(C(F)(F)F)cc1NC(=S)C2 ... 170
2. CC(C)(C[C@H]1CN(S(=O)(=O)c2cccc(C(F)(F)F)c2)c2cc(-c3cc(F)cc(OC(F)F)c3)ccc2O1)C(=O)O ... 15500

# next molecule below
Query :: Provide TGI, recorded with A549 NSCLC, of CCOc1cc(C(C)(C)C)ccc1C1=N[C@@](C)(c2ccc(Cl)cc2)[C@@](C)(c2ccc(Cl)cc2)N1C(=O)N1CCN(CCCS(C)(=O)=O)CC1
Result :: 1630

====

# System: CCRF-CEM leukemia
# TEST: NCI tumour cell line growth inhibition, 384-well format
METRIC: GI50

These recorded examples may help you get a feel for the data.
1) CCOc1cc(C(C)(C)C)ccc1C1=N[C@@](C)(c2ccc(Cl)cc2)[C@@](C)(c2ccc(Cl)cc2)N1C(=O)N1CCN(CCCS(C)(=O)=O)CC1 ... 2.12 µM
2) CN(C)C(=O)[C@H](O)[C@H](Cc1ccccc1)NC(=O)c1cc2cc(Cl)ccc2[nH]1 ... 17.9 µM
3) C[C@H](O)C(=O)N1CCC(CCn2c(Sc3cc4c(cc3Br)OCO4)nc3c(N)ncnc32)CC1 ... 0.229 µM

Query :: Respond only with GI50 recorded for CC(C)(C[C@H]1CN(S(=O)(=O)c2cccc(C(F)(F)F)c2)c2cc(-c3cc(F)cc(OC(F)F)c3)ccc2O1)C(=O)O
Result :: 6.52 µM

====

# Tested on: MDA-MB-468 breast
# TEST: NCI tumour cell line growth inhibition, 384-well format
METRIC: TGI (µM)
Kindly provide the numeric value in µM only, without the unit symbol.

These recorded examples may help you get a feel for the data.
1) Nc1nc(F)nc2c1ncn2C1OC(CO)C(O)C1O (centres undefined) ... 82.8
2) CN(C)C(=O)[C@H](O)[C@H](Cc1ccccc1)NC(=O)c1cc2cc(Cl)ccc2[nH]1 ... 36.1

# next compound below
Query :: Respond only with TGI recorded for CC(C)(C[C@H]1CN(S(=O)(=O)c2cccc(C(F)(F)F)c2)c2cc(-c3cc(F)cc(OC(F)F)c3)ccc2O1)C(=O)O
Result :: 7.31

====

# Test system: T-47D breast
# TEST: NCI tumour cell line growth inhibition, 384-well format; in the data active means GI50 below about 0.43 µM; inactive means the rest
Pick one and only one: Yes (active), No (inactive)

1. Cc1ncc(CCCN(C)C)cc1Nc1ncc2c(n1)-c1ccc(C(F)(F)F)cc1NC(=S)C2 ... Yes
2. CCOc1cc(C(C)(C)C)ccc1C1=N[C@@](C)(c2ccc(Cl)cc2)[C@@](C)(c2ccc(Cl)cc2)N1C(=O)N1CCN(CCCS(C)(=O)=O)CC1 ... No
3. CC(C)(C[C@H]1CN(S(=O)(=O)c2cccc(C(F)(F)F)c2)c2cc(-c3cc(F)cc(OC(F)F)c3)ccc2O1)C(=O)O ... No

Next compound, please.
Query :: Lab log entry: Nc1nc(F)nc2c1ncn2C1OC(CO)C(O)C1O (centres undefined) — outcome as called in the assay?
Result :: No
